The measured values listed here are drawn from paper PMC4676704.

molecular target: T1, Flag-tagged Iso1, MC1R-TUBB3 in-frame intergenic splice chimera (human); assay: radioligand binding; equilibrium competition binding on transfected HEK293T cells, 24 h after transfection, serum deprived 3 h; 125I-NDP-MSH 5x10^-11 M with unlabelled NDP-MSH from 10^-12 to 10^-7 M; settings: one partner purified
T1 construct: numbers count on: MC1R-002; Tubulin-β-III, human; A BamHI site in the TUBB3 part was ablated by site-directed mutagenesis (ATC to ATT by the printed primer, silent by my reading); also called Flag-Iso1; MC1R-TUBB3 chimeric isoform Iso1; source: HEK293T, transfected (pcDNA3); not shown: Flag, N-terminal, kept
MEASURED ATTRIBUTE: Kd (pM)
Report the value in pM with no unit label.

Kd reported for this binder SYSLEHFRWGKPV (not fully specified; Nle at position 4; D-Phe at position 7; 125I label (tracer)) [[Nle4, D-Phe7]-αMSH (NDP-MSH), 125I-labelled] : 590
